Target: T1, Fc-tagged human PD-L1 extracellular domain (SinoBiological, cat. 10084-H02H) (human, UniProt Q9NZQ7 19-238)
T1 construct: extracellular domain; also called hPD-L1; not shown: Fc tag of the bought protein
T1 sequence (Q9NZQ7 19-238): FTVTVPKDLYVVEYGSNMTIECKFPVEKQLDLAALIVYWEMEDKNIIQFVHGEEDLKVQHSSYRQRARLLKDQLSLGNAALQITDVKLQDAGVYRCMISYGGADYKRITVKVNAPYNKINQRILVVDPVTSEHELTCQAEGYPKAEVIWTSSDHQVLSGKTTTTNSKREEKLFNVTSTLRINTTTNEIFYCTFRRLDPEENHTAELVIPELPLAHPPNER
Assay: SPR, captured Fc-PD-L1 ECD, scFv analyte, kinetic
assay metric: kon (M⁻¹ s⁻¹)
Number in M⁻¹ s⁻¹, nothing else.

These recorded examples may help you get a feel for the data.
binder: PRO1089 (scFv, V domains shown, also called 33-03-G02 VH-Y112A) VH: QVQLQESGPGLVKPSETLSLTCKVSGFSFSSGYDMCWIRQPPGKGLEWIGCVVAGSVDITYYASWAKGRVTISVDSSKNQFSLKLSSVTAADTAVYYCARKDAASDAFNLWGQGTLVTVSS VL: DIQMTQSPSSLSASVGDRVTITCQASQSINDYLAWYQQKPGKAPKLLIYKASTLASGVPSRFSGSGSGTDFTLTISSLQPEDFATYYCQQGYIITDIDNVFGTGTKVTVLG
result units: M⁻¹ s⁻¹
kon: 1.99e+06
--
binder: PRO830 (scFv, V domains shown, also called 33-03-G02; parental scFv) VH: QVQLQESGPGLVKPSETLSLTCKVSGFSFSSGYDMCWIRQPPGKGLEWIGCVVAGSVDITYYASWAKGRVTISVDSSKNQFSLKLSSVTAADTAVYYCARKDAYSDAFNLWGQGTLVTVSS VL: DIQMTQSPSSLSASVGDRVTITCQASQSINDYLAWYQQKPGKAPKLLIYKASTLASGVPSRFSGSGSGTDFTLTISSLQPEDFATYYCQQGYIITDIDNVFGTGTKVTVLG
result units: M⁻¹ s⁻¹
kon: 1.78e+06
--
binder: PRO1075 (scFv, V domains shown, also called 33-03-G02 VL-Q108A) VH: QVQLQESGPGLVKPSETLSLTCKVSGFSFSSGYDMCWIRQPPGKGLEWIGCVVAGSVDITYYASWAKGRVTISVDSSKNQFSLKLSSVTAADTAVYYCARKDAYSDAFNLWGQGTLVTVSS VL: DIQMTQSPSSLSASVGDRVTITCQASQSINDYLAWYQQKPGKAPKLLIYKASTLASGVPSRFSGSGSGTDFTLTISSLQPEDFATYYCQAGYIITDIDNVFGTGTKVTVLG
result units: M⁻¹ s⁻¹
kon: 1.67e+06
--
binder: PRO1076 (scFv, V domains shown, also called 33-03-G02 VL-G109A) VH: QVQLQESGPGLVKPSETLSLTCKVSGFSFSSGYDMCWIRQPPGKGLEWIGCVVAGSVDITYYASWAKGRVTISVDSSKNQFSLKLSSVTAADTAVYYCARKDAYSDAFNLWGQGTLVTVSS VL: DIQMTQSPSSLSASVGDRVTITCQASQSINDYLAWYQQKPGKAPKLLIYKASTLASGVPSRFSGSGSGTDFTLTISSLQPEDFATYYCQQAYIITDIDNVFGTGTKVTVLG
result units: M⁻¹ s⁻¹
kon: 1.8e+06

stdin: Note kon for the binder shown: PRO1434 (scFv, V domains shown, also called 33-03-G02 VL-Q108A/G109A) VH: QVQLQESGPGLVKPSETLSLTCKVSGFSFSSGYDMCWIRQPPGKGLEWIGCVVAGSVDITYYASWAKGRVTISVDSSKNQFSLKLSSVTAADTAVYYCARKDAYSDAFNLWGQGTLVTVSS VL: DIQMTQSPSSLSASVGDRVTITCQASQSINDYLAWYQQKPGKAPKLLIYKASTLASGVPSRFSGSGSGTDFTLTISSLQPEDFATYYCQAAYIITDIDNVFGTGTKVTVLG
stdout: 1.09e+06
